Measured pEC50 by item
Test system: BaF3
experiment-notes: cells
reported-conditions: Mus musculus, BaF3, 72 h
pEC50: −log10 of the molar value.

[
  {
    "smiles-data": "Cc1ccc(C(=O)Nc2ccc(Oc3cc4cnn(C)c4cc3-c3cn[nH]c3)c(F)c2)c(=O)n1-c1ccc(F)cc1",
    "relation-qualifier": "=",
    "pEC50": 7.74
  },
  {
    "smiles-data": "CN1CCC(COc2cnc(-c3cccc(Cn4nc(-c5cccc(C#N)c5)ccc4=O)c3)nc2)CC1",
    "relation-qualifier": "=",
    "pEC50": 5.55
  },
  {
    "smiles-data": "C[C@@H](c1ccc2nccn2c1)n1nnc2ncc(-c3cnn(C)c3)nc21",
    "relation-qualifier": "<",
    "pEC50": 5.00
  },
  {
    "smiles-data": "COc1cc2nccc(Oc3c(F)cc(NC(=O)c4cnccc4OC)cc3F)c2cc1O[C@@H](C)CO",
    "relation-qualifier": "=",
    "pEC50": 8.04
  }
]

---

experiment-notes: Clearance in female Balb/c mouse at 1 mg/kg, iv
Assay type: ADME, organism-based
reported-conditions: in vivo
value-type: clearance (mL/min/kg)

[
  {
    "smiles-data": "COc1cc2nccc(Oc3c(F)cc(NC(=O)c4cnccc4OC)cc3F)c2cc1O[C@@H](C)CO",
    "value-type": "clearance",
    "unit-abbreviation": "mL/min/kg",
    "obs-value": 14.3
  }
]

---

target-system: L-type calcium channel (Homo sapiens, UniProt O60840+Q01668+Q13698+Q13936)
experiment-notes: Inhibition of Calcium channel L-type (unknown origin) at 10 uM by CEREP analysis relative to control
Type: protein assay
Measured inhibition at 10 µM by item

[
  {
    "smiles-data": "COc1cc2nccc(Oc3c(F)cc(NC(=O)c4cnccc4OC)cc3F)c2cc1O[C@@H](C)CO",
    "unit-abbreviation": "%",
    "inhibition at 10 µM": -4
  },
  {
    "smiles-data": "COc1cc2c(Oc3c(F)cc(NC(=O)c4cnccc4OC4CC4)cc3F)ccnc2cc1OCCO",
    "unit-abbreviation": "%",
    "inhibition at 10 µM": 50
  },
  {
    "smiles-data": "COc1cc2c(Oc3c(F)cc(NC(=O)c4cnccc4OC)cc3F)ccnc2cc1OCCO",
    "unit-abbreviation": "%",
    "inhibition at 10 µM": -3
  },
  {
    "smiles-data": "COc1cc2nccc(Oc3c(F)cc(NC(=O)c4cnccc4OC)cc3F)c2cc1OCCO",
    "unit-abbreviation": "%",
    "inhibition at 10 µM": 6
  },
  {
    "smiles-data": "CNCCOc1cc2nccc(Oc3c(F)cc(NC(=O)c4cnccc4OC)cc3F)c2cc1OC",
    "unit-abbreviation": "%",
    "inhibition at 10 µM": 41
  }
]

---

Measured inhibition by item
Organism: Homo sapiens
experiment-notes: Inhibition of sodium channel site 2 (unknown origin) at 10 uM by CEREP analysis relative to control
value-type: inhibition (%)

[
  {
    "smiles-data": "COc1cc2nccc(Oc3c(F)cc(NC(=O)c4cnccc4OC)cc3F)c2cc1O[C@@H](C)CO",
    "obs-value": 40
  },
  {
    "smiles-data": "COc1cc2c(Oc3c(F)cc(NC(=O)c4cnccc4OC)cc3F)ccnc2cc1OCCO",
    "obs-value": 30
  },
  {
    "smiles-data": "COc1cc2nccc(Oc3c(F)cc(NC(=O)c4cnccc4OC)cc3F)c2cc1OCCO",
    "obs-value": 25
  },
  {
    "smiles-data": "COc1cc2c(Oc3c(F)cc(NC(=O)c4cnccc4OC4CC4)cc3F)ccnc2cc1OCCO",
    "obs-value": 57
  },
  {
    "smiles-data": "CNCCOc1cc2nccc(Oc3c(F)cc(NC(=O)c4cnccc4OC)cc3F)c2cc1OC",
    "obs-value": 89
  }
]

---

target-system: hERG (Homo sapiens, UniProt Q12809)
Sequence (Q12809 whole entry): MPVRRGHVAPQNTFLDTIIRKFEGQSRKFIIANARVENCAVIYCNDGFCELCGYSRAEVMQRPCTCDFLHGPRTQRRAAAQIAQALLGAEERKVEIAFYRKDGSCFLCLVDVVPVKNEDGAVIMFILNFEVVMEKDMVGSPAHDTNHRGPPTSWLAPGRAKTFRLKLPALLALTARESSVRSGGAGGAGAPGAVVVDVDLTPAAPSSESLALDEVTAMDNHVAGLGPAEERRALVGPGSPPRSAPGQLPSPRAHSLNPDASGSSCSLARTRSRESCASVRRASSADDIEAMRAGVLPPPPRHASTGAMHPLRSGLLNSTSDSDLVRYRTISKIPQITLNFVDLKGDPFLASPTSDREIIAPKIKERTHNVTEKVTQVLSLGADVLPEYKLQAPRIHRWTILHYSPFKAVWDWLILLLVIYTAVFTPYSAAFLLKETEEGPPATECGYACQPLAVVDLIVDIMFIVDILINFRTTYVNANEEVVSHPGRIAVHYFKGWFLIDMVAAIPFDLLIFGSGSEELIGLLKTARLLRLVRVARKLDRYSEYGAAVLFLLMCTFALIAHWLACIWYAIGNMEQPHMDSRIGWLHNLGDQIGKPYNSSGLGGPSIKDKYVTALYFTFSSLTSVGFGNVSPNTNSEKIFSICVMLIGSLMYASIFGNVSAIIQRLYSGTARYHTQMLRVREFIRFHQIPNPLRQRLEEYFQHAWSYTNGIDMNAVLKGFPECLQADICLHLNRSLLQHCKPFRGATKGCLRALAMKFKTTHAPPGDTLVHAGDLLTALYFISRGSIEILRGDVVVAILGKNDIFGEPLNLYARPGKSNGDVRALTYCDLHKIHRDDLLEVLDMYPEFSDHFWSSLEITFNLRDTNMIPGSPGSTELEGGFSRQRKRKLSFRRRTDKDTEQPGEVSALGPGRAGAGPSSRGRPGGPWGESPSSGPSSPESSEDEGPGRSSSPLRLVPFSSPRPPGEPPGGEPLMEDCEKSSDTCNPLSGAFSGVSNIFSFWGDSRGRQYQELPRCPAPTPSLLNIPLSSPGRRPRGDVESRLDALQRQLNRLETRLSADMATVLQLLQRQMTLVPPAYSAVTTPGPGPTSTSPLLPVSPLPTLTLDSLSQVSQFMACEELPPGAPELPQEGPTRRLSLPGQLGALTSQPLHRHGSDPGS
experiment-notes: Inhibition of hERG
Assay type: toxicity

[
  {
    "smiles-data": "COc1cc2nccc(Oc3c(F)cc(NC(=O)c4cnccc4OC)cc3F)c2cc1O[C@@H](C)CO",
    "IC20 / µM": 10
  }
]

---

experiment-notes: Volume of distribution in male Sprague-Dawley rat at 3 mg/kg, iv
Type: ADME, organism-based
reported-conditions: in vivo

[
  {
    "smiles-data": "COc1cc2nccc(Oc3c(F)cc(NC(=O)c4cnccc4OC)cc3F)c2cc1OCCO",
    "Vd (L/kg)": 0.68
  }
]

---

experiment-notes: Kinetic solubility of compound at pH 2
Format: physicochemical
reported-conditions: buffer, read-out: Kinetic_solubility
Rule: condition met for solubility kinetic not less than 300 µM, condition not met for anything less.

[
  {
    "compound": "COc1cc2nccc(Oc3c(F)cc(NC(=O)c4cnccc4OC)cc3F)c2cc1O[C@@H](C)CO",
    "class-label": "condition not met"
  },
  {
    "compound": "CNC(=O)c1ccc(-c2cnc3ncc(Cc4ccc5ncccc5c4)n3n2)cc1F [CAPMATINIB]",
    "class-label": "condition not met"
  },
  {
    "compound": "COc1cc2nccc(Oc3c(F)cc(NC(=O)c4cnccc4OC4CC4)cc3F)c2cc1OC",
    "class-label": "condition not met"
  },
  {
    "compound": "COc1cc2nccc(Oc3ccc(NC(=O)C4(C(=O)Nc5ccc(F)cc5)CC4)cc3)c2cc1OC [CABOZANTINIB]",
    "class-label": "condition not met"
  },
  {
    "compound": "COc1cc2c(Oc3c(F)cc(NC(=O)c4cnccc4OC)cc3F)ccnc2cc1OCCO",
    "class-label": "condition met"
  },
  {
    "compound": "COc1cc2nccc(Oc3c(F)cc(NC(=O)c4cnccc4OC)cc3F)c2cc1OC",
    "class-label": "condition not met"
  },
  {
    "compound": "COc1cc2nccc(Oc3ccc(NC(=O)c4ccccc4OC)cc3F)c2cc1OC",
    "class-label": "condition not met"
  },
  {
    "compound": "COc1cc2nccc(Oc3ccc(NC(=O)c4cnccc4OC)cc3F)c2cc1OC",
    "class-label": "condition not met"
  },
  {
    "compound": "COCCNCc1ccc(-c2cc3nccc(Oc4ccc(NC(=S)NC(=O)Cc5ccc(F)cc5)cc4F)c3s2)nc1 [GLESATINIB]",
    "class-label": "condition not met"
  },
  {
    "compound": "COc1cc2nccc(Oc3c(F)cc(NC(=O)c4cnccc4OC)cc3F)c2cc1OCCO",
    "class-label": "condition not met"
  },
  {
    "compound": "Cc1ccc(C(=O)Nc2ccc(Oc3cc4cnn(C)c4cc3-c3cn[nH]c3)c(F)c2)c(=O)n1-c1ccc(F)cc1 [MERESTINIB]",
    "class-label": "condition not met"
  },
  {
    "compound": "CNCCOc1cc2nccc(Oc3c(F)cc(NC(=O)c4cnccc4OC)cc3F)c2cc1OC",
    "class-label": "condition not met"
  },
  {
    "compound": "COc1cc2c(Oc3c(F)cc(NC(=O)c4cnccc4OC4CC4)cc3F)ccnc2cc1OCCO",
    "class-label": "condition met"
  }
]

---

experiment-notes: Dose-normalized AUC in male Sprague-Dawley rat at 10 mg/kg, po
Assay type: ADME, organism-based
reported-conditions: in vivo

[
  {
    "smiles-data": "COc1cc2nccc(Oc3c(F)cc(NC(=O)c4cnccc4OC)cc3F)c2cc1OCCO",
    "AUC/dose / ng.h/mL per mg/kg": 2040
  }
]

---

experiment-notes: Oral bioavailability in male Beagle dog at 15 mg/kg
Type: ADME, organism-based, Canis lupus familiaris
reported-conditions: in vivo

[
  {
    "smiles-data": "COc1cc2nccc(Oc3c(F)cc(NC(=O)c4cnccc4OC)cc3F)c2cc1OCCO",
    "unit-abbreviation": "%",
    "bioavailability": 18
  }
]

---

experiment-notes: Volume of distribution in female Balb/c mouse at 5 mg/kg, iv
Format: ADME, organism-based
reported-conditions: in vivo

[
  {
    "smiles-data": "COc1cc2nccc(Oc3c(F)cc(NC(=O)c4cnccc4OC)cc3F)c2cc1OCCO",
    "Vd / L/kg": 0.38
  }
]

---

experiment-notes: Clearance in male Sprague-Dawley rat at 3 mg/kg, iv
Type: ADME, organism-based
reported-conditions: in vivo

[
  {
    "smiles-data": "COc1cc2nccc(Oc3c(F)cc(NC(=O)c4cnccc4OC)cc3F)c2cc1OCCO",
    "clearance": "4.8 mL/min/kg"
  },
  {
    "smiles-data": "COc1cc2nccc(Oc3c(F)cc(NC(=O)c4cnccc4OC)cc3F)c2cc1O[C@@H](C)CO",
    "clearance": "11.2 mL/min/kg"
  }
]
